Ref: patent US10144742B2

- testSystem: hNAMPT protein (Homo sapiens (Human))
- assay: NAMPT enzyme assay (TR-FRET/HTRF, BodiPY ligand, anti 6His-Tb)
- Format: binding
- cond: compound concentration 1 μM; read-out: Percent Inhibition
Listing: inhibition at 1 µM of selected compounds
Supply the numeric figure in %, leaving out any unit text.

The cases that follow already have their inhibition at 1 µM on record.
- smilesNotation: "O=C(NCCCc1ncc[nH]1)c1ccc2nc(-c3ccc(F)cc3)c(-c3cc(F)ccc3F)nc2c1"
  inhibition at 1 µM (%): 94
- smilesNotation: "CC(C)Oc1c2c(nn1C)CCN(C(=O)c1ccc3nc(-c4ccc(F)cc4)c(-c4ccc(F)cc4)nc3c1)C2"
  inhibition at 1 µM (%): 14

Then there is this compound:
Recorded inhibition at 1 µM (compound Cn1ccc(-c2nc3ccc(C(=O)NCCCn4ccnc4)cc3nc2-c2ccccc2)n1 ): 37

----------
Listing: IC50 of selected compounds
- testSystem: hNAMPT protein (Homo sapiens (Human), UniProt P43490)
- Sequence (P43490 whole entry): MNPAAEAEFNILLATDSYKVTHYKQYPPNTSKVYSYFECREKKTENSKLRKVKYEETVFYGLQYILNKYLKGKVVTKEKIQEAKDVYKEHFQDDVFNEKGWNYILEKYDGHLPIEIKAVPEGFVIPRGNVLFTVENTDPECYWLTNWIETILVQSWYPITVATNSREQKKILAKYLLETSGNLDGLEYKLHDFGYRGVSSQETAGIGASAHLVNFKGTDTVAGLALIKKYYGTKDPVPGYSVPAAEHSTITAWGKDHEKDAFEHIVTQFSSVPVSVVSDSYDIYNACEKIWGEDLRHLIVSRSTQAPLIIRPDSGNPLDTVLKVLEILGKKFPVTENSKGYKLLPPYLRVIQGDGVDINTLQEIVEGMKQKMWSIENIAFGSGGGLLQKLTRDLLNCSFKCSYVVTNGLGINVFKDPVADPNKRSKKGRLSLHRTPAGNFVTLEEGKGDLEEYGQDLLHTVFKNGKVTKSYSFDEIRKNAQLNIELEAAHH
- assay: NAMPT enzyme assay (TR-FRET/HTRF, BodiPY ligand, anti 6His-Tb)
- Assay type: binding
- cond: NAMPT inhibition, IC50 range class; read-out: IC50

The cases that follow already have their IC50 on record.
- compound: "CC(C)COc1nc2ccc(C(=O)NCCCc3ncc[nH]3)cc2nc1-c1ccc(F)cc1"
  measuredMetric: "IC50"
  observedValue: "< 100 nM"
- compound: "O=C(NCCCc1ncc[nH]1)c1ccc2nc(-c3ccc(F)cc3)c(-c3cc(F)c(F)c(F)c3)nc2c1"
  measuredMetric: "IC50"
  observedValue: "100 to 500 nM"

Recorded IC50 (compound Cc1ccc(Cl)cc1-c1nc2cc(C(=O)NCCCc3ncc[nH]3)ccc2nc1-c1ccc(F)cc1 ): < 100 nM

Recorded IC50 (compound COc1ccc(-c2nc3cc(C(=O)NCCCc4ncc[nH]4)ccc3nc2-c2ccc(F)cc2)c(F)c1 ): 100 to 500 nM

----------
- testSystem: hNAMPT protein (Homo sapiens (Human), UniProt P43490)
- assay: NAMPT enzyme assay (TR-FRET/HTRF, BodiPY ligand, anti 6His-Tb)
- Assay type: binding
- cond: NAMPT inhibition at compound concentration 1 μM; read-out: Percent Inhibition
- Description: As discussed above, the invention provides compounds that are useful as inhibitors of the enzyme NAMPT. The NAMPT inhibition of a compound of the invention can be measured using a variety of methods known in the art. […] The TR-FRET signal can be measured using a high throughput microplate reader (e.g., Pherastar). […] The percent inhibition value at a single concentration of compound of the invention can be calculated relative to a control treated sample. […]
Listing: inhibition at 1 µM of selected molecules
Supply the numeric figure in %, leaving out any unit text.

The cases that follow already have their inhibition at 1 µM on record.
- molecule: "O=C(NCCCc1ncc[nH]1)c1ccc2nc(-c3ccc(F)cc3)c(-c3ccc(Cl)cc3F)nc2c1"
  testSystem: "hNAMPT protein (Homo sapiens (Human), UniProt P43490)"
  observedValue: 80
- molecule: "O=C(NCCCc1ncc[nH]1)c1ccc2nc(-c3ccc(F)cc3)c(-c3ccc(Cl)c(Cl)c3)nc2c1"
  testSystem: "hNAMPT protein (Homo sapiens (Human), UniProt P43490)"
  observedValue: 97
- molecule: "O=C(NCCCc1ncc[nH]1)c1ccc2nc(OCc3ccccc3)c(-c3ccc(F)cc3)nc2c1"
  testSystem: "hNAMPT protein (Homo sapiens (Human), UniProt P43490)"
  observedValue: 93
- molecule: "CC(C)Oc1nc2ccc(C(=O)NCCCc3c[nH]cn3)cc2nc1-c1ccc(F)cc1"
  testSystem: "hNAMPT protein (Homo sapiens (Human), UniProt P43490)"
  observedValue: 72
- molecule: "COC1CCN(c2nc3ccc(C(=O)NCCCc4ncc[nH]4)cc3nc2-c2ccc(F)cc2)C1 (stereo not shown)"
  testSystem: "hNAMPT protein (Homo sapiens (Human), UniProt P43490)"
  observedValue: 98
- molecule: "O=C(NCCCc1ncc[nH]1)c1ccc2nc(OC3CCCC3)c(-c3ccc(F)cc3)nc2c1"
  testSystem: "hNAMPT protein (Homo sapiens (Human), UniProt P43490)"
  observedValue: 97

Recorded inhibition at 1 µM (molecule O=C(NCCCc1ncc[nH]1)c1ccc2nc(-c3ccc(F)cc3)c(-c3cc4ccccc4s3)nc2c1 ): 96
